# MEASUREMENT NOTES: Cmax in Beagle dog at 3 mg/kg, po
# Type: ADME, organism-based, Canis lupus familiaris
# Design: dose 3 mg/kg, route oral
# TEST CONDITIONS: in vivo

SMILES	UNIT INFO	Cmax
CC(=O)N1CCN([C@H]2CC[C@H](c3cc(OC4CC4)c(Nc4ncc(Cl)c(Nc5cn(C)nc5S(=O)(=O)C(C)C)n4)cc3C)CC2)CC1	ng/mL	355

Value source: ChEMBL document CHEMBL3785058
